Subject of test: T1, cynoNectin4-mFc (cyno, UniProt A0A2K5WES1 32-349)
T1 construct: Immobilized on the SPR chip; also called cyanoNectin4; not shown: mFc (mouse Fc)
T1 sequence: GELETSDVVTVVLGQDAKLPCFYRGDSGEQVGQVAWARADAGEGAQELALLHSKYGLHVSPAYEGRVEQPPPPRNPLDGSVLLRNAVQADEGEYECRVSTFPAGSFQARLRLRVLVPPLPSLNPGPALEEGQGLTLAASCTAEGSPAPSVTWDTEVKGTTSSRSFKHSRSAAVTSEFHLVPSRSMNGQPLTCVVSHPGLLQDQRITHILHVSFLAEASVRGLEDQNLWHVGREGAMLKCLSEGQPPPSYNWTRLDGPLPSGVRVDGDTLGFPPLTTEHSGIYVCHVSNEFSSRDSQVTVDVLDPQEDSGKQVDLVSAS
Test protocol: SPR, cynoNectin4-mFc immobilized, pH 6.5
Here the recorded koff is given for each entry.
Note: unit s⁻¹ is implicit; provide only the numeric part.

- Binder: "BAP-143-00-05 (antibody, V domains shown, Used as a conjugate with a linker payload (CAB ADC)) VH: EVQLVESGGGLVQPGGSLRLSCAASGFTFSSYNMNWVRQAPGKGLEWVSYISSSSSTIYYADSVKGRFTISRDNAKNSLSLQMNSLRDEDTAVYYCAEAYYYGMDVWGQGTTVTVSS VL: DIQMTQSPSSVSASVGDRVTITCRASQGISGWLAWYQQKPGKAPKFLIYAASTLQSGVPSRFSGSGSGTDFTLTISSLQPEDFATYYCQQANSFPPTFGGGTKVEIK"
  Reported property: "koff"
  Measure unit: "s⁻¹"
  Quantitative result: 0.00237

We now examine a further binder.
Query: koff; subject: BAP-143-00-04 (antibody, V domains shown, Used as a conjugate with a linker payload (CAB ADC)) VH: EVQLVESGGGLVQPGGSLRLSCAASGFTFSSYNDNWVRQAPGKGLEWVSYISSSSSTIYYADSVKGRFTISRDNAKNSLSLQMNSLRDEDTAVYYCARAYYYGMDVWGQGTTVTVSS VL: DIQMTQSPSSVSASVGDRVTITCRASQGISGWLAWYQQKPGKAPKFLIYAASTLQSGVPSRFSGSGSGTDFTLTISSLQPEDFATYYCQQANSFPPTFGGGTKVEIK
0.0018
